Species: Bos taurus
Assay: Inhibition of bovine heart phosphodiesterase at 2000 uM using 1 uM cyclic-AMP
# reported inhibition; entries follow

Worked cases, inhibition given:
CCC1C(=O)N=C2N=CC=CN2C1=O (centres undefined): 22%
CC1C(=O)N2N=CN(C)C2=[N+](C)C1=O (centres undefined): < 30%
CCC1C(=O)N2N=CN(C)C2=[N+](C)C1=O (centres undefined): < 30%

Would you mind telling me what inhibition value was observed for CN1C=NN2C(=O)CC(=O)[N+](C)=C12 ?
< 30%

---

Test: Inhibitory activity against phosphodiesterase using 1 uM cyclic-AMP as substrate in bovine heart
Design: species or system Bos taurus
Details: read-out: I50
propertyName: pIC50
Please treat pIC50 as minus the base-10 logarithm of the molar concentration.

Quick one: pIC50 for CCC1C(=O)N2C=CSC2=[N+](CC2CC2)C1=O (stereo not given) ?
3.40

Check CCC1C(=O)N2CCSC2=[N+](CC2CC2)C1=O (stereo not given) too.
2.86

Let us now turn to CCC1C(=O)N2C=CSC2=[N+](Cc2ccc(-c3ccccc3)cc2)C1=O (stereo not given)
4.89

Continue with CC[N+]1=C2SC=CN2C(=O)C(Cc2ccccc2)C1=O (stereo not given)
3.77

Follow-up entry: CCC1C(=O)N2C=CC=NC2=[N+](C)C1=O (stereo not given)
2.78
